Target: porcine pancreatic α-amylase (Sus scrofa, UniProt P00690)
Sequence (P00690 16-511): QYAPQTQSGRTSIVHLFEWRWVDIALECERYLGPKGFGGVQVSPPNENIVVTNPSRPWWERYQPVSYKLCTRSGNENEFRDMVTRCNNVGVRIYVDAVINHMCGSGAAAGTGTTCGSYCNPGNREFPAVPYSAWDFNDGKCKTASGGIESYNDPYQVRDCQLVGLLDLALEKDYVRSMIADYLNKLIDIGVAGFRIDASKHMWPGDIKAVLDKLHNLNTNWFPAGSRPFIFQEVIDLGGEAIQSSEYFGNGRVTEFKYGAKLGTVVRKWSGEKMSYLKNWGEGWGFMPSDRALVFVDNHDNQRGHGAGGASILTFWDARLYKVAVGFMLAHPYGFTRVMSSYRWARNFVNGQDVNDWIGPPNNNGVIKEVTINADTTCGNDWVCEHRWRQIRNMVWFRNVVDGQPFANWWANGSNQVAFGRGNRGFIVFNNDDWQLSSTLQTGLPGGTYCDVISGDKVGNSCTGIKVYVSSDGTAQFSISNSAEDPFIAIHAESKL
Experiment: starch hydrolysis by α-amylase monitored by isothermal titration calorimetry (ITC)
Type: biochemical
Conditions: calculated based on the mass concentration
Assign labels as follows, please: yes for α (Kic/Kiu) below 0.7; no for α (Kic/Kiu) equal to or exceeding 0.7.

Worked cases, answers included:
| compound | group |
| --- | --- |
| Oc1cc(O)c2c(c1)O[C@H](c1ccc(O)c(O)c1)[C@H](O)[C@H]2c1c(O)cc(O)c2c1O[C@H](c1ccc(O)c(O)c1)[C@H](O)[C@H]2c1c(O)cc(O)c2c1O[C@H](c1ccc(O)c(O)c1)[C@H](O)C2 | no |
| C[C@@H]1O[C@@H](OC[C@H]2O[C@@H](Oc3c(-c4ccc(O)c(O)c4)oc4cc(O)cc(O)c4c3=O)[C@H](O)[C@@H](O)[C@@H]2O)[C@H](O)[C@H](O)[C@H]1O [rutin, quercetin-3-O-rutinoside] | yes |
| COc1cc(/C=C/C(=O)O)ccc1O | yes |
| Oc1cc(O)c2c(c1)O[C@H](c1ccc(O)c(O)c1)[C@H](O)[C@H]2c1c(O)cc(O)c2c1O[C@H](c1ccc(O)c(O)c1)[C@H](O)C2 | no |
| Oc1cc(O)c2c(c1)O[C@H](c1ccc(O)c(O)c1)[C@@H](O)C2 [CAT, (+)-catechin] | no |
| Oc1cc(O)c2c(c1)O[C@H](c1ccc(O)c(O)c1)[C@H](O)C2 [EC, (−)-epicatechin] | no |
| O=C(CCc1ccc(O)cc1)c1c(O)cc(O)cc1O[C@@H]1O[C@H](CO)[C@@H](O)[C@H](O)[C@H]1O | no |
| O=c1c(O[C@@H]2O[C@H](CO)[C@@H](O)[C@H](O)[C@H]2O)c(-c2ccc(O)c(O)c2)oc2cc(O)cc(O)c12 [Q-3-glc, quercetin-3-O-glucoside] | yes |

Field: next compound
q: Please state whether α (Kic/Kiu) is below 0.7 for O=C(O[C@@H]1Cc2c(O)cc(O)cc2O[C@@H]1c1cc(O)c(O)c(O)c1)c1cc(O)c(O)c(O)c1 [EGCG, epigallocatechin gallate]
a: no

The reported measurements were obtained from paper PMC12810351.
